Biological target: T1, human αIIbβ3 integrin on transfected CHO K1 cells (human, UniProt P08514 32-1039; P05106 27-788)
T1 construct: whole, on cells; CHO K1 cells transfected with human αIIb and β3 cDNA; about 30% of the cells expressed the receptor; also called platelet receptor; platelet integrin
Test: Ac-GXGDSC peptide array, adhesion of αIIbβ3 CHO K1 cells
Experimental: After 15-minute of incubation, cells (200,000/mL) were added to substrates in 24-well culture plates. After 2 hour incubation at 37° C. and 5% CO₂, media was exchanged for F-12K medium supplemented with 10% FBS, 1× penicillin/streptomycin and cRGDFG (SEQ ID NO: 12) (300 μM). […] The number of adherent cells per field of view was counted using Image J software. Cells were counted in at least three fields for each circle, and each experiment was repeated 3 times. […]
maleimide monolayer = not defined here
ASSAY_ENDPOINT: binding result

For orientation, consider the following solved cases.
BINDER	binding result
Ac-GHGDSC(maleimide monolayer)-NH2 (not fully specified; printed as Ac-GXGDSC; reading uncertain, Member of the Ac-GXGDSC library) [Ac-GXGDSC (SEQ ID NO: 26) with X = H, immobilized on a monolayer array]	no binding
Ac-GGGDSC(maleimide monolayer)-NH2 (not fully specified; printed as Ac-GGGDSC; reading uncertain, also called 0.5% Ac-GGGDSC; Ac-GXGDSC with X = Gly) [Ac-GGGDSC (SEQ ID NO: 29), immobilized on a monolayer array]	binds
Ac-GYGDSC(maleimide monolayer)-NH2 (reading uncertain; also: printed as Ac-GXGDSC, Member of the Ac-GXGDSC library) [Ac-GXGDSC (SEQ ID NO: 26) with X = Y, immobilized on a monolayer array]	no binding
Ac-GDGDSC(maleimide monolayer)-NH2 (not fully specified; printed as Ac-GXGDSC; reading uncertain, Member of the Ac-GXGDSC library) [Ac-GXGDSC (SEQ ID NO: 26) with X = D, immobilized on a monolayer array]	no binding
Ac-GFGDSC(maleimide monolayer)-NH2 (not fully specified; printed as Ac-GXGDSC; reading uncertain, Member of the Ac-GXGDSC library) [Ac-GXGDSC (SEQ ID NO: 26) with X = F, immobilized on a monolayer array]	no binding
Ac-GKGDSC(maleimide monolayer)-NH2 (not fully specified; printed as Ac-GKGDSC; reading uncertain, also called 0.5% Ac-GKGDSC; Ac-GXGDSC with X = Lys) [Ac-GKGDSC (SEQ ID NO: 31), immobilized on a monolayer array]	binds
Ac-GTGDSC(maleimide monolayer)-NH2 (not fully specified; printed as Ac-GXGDSC; reading uncertain, Member of the Ac-GXGDSC library) [Ac-GXGDSC (SEQ ID NO: 26) with X = T, immobilized on a monolayer array]	no binding
Ac-GAGDSC(maleimide monolayer)-NH2 (not fully specified; printed as Ac-GAGDSC; reading uncertain, also called 0.5% Ac-GAGDSC; Ac-GXGDSC with X = Ala) [Ac-GAGDSC (SEQ ID NO: 30), immobilized on a monolayer array]	binds

Sure, the documented binding result for Ac-GRGDSC(maleimide monolayer)-NH2 (not fully specified; printed as Ac-GRGDSC; reading uncertain, also called 0.5% Ac-GRGDSC) [Ac-GRGDSC (SEQ ID NO: 28), immobilized on a monolayer array] is binds
